Reference source for all entries: ChEMBL document CHEMBL4513216

- ASSAY DETAILS: Toxicity liver stage against HepG2, at 10uM
- Format: cell-based
- Parameters: test concentration 10 uM, cell line HepG2-A16-CD81EGFP
- MEASUREMENT CONTEXT: human, HepG2-A16-CD81EGFP cells; read-out: INHIBITION
METRIC NAME: cytotoxicity at 10 µM (%)
Number in %, nothing else.

I'd like to know its cytotoxicity at 10 µM. The molecule in question is CCOCC1CN(C(=O)c2cc(C)oc2C)Cc2c1cnn2C (stereo not drawn)
9.64

I'd like to know its cytotoxicity at 10 µM. The molecule in question is COc1ccc2c(c1)OCC(Cc1ccc(N)nc1C)C2 (stereo not drawn)
21.8

I'd like to know its cytotoxicity at 10 µM. The molecule in question is Cc1nn(C2CCS(=O)(=O)C2)c(C)c1CC(=O)NCc1ccccc1Cl (stereo not drawn)
-0.178

I'd like to know its cytotoxicity at 10 µM. The molecule in question is Cc1cc(O)cc(C2CCCN2C(=O)c2ccncc2)n1 (stereo not drawn)
8.16

I'd like to know its cytotoxicity at 10 µM. The molecule in question is CCn1ccnc1CN1CCCC1Cn1cc(C)cn1 (stereo not drawn)
-14.3

I'd like to know its cytotoxicity at 10 µM. The molecule in question is COc1ccc(CN2CCc3sccc3C2C)cc1CN1CCOCC1 (stereo not drawn)
-0.782

I'd like to know its cytotoxicity at 10 µM. The molecule in question is O=C1NCCCCC1NCc1csc(-c2ccc(F)cc2)n1 (stereo not drawn)
-13.5

I'd like to know its cytotoxicity at 10 µM. The molecule in question is O=C(c1cscn1)N1CCC(Cc2cnc3[nH]ccc3c2)C1 (stereo not drawn)
-26.5

I'd like to know its cytotoxicity at 10 µM. The molecule in question is Cc1cc(C)nc(N2C[C@H]3OC(=O)N(CCc4cccc(Cl)c4)[C@H]3C2)n1
6.72

I'd like to know its cytotoxicity at 10 µM. The molecule in question is COc1ccc(CN(C)CC2(O)CCNC2)cc1 (stereo not drawn)
-1.68

I'd like to know its cytotoxicity at 10 µM. The molecule in question is CC(=O)Nc1nc(CNc2ccccc2CCC(F)(F)F)cs1
27.9

I'd like to know its cytotoxicity at 10 µM. The molecule in question is CC(NCCCc1cnn(C)c1)c1ccc(Cl)s1 (stereo not drawn)
5.29

I'd like to know its cytotoxicity at 10 µM. The molecule in question is CCn1ccnc1CN1CCCN(C(=O)Cc2ccc(C)cc2)CC1
-7.29

I'd like to know its cytotoxicity at 10 µM. The molecule in question is Cc1ccc(-c2nc(CN(Cc3cccs3)CC3CCCO3)no2)cc1 (stereo not drawn)
0.561

I'd like to know its cytotoxicity at 10 µM. The molecule in question is Cc1cc(CNC(=O)CN2CCCC(Cn3cncn3)C2)ccc1F (stereo not drawn)
-9.92

I'd like to know its cytotoxicity at 10 µM. The molecule in question is O=C(NC1(C(=O)O)CCCC1)C1Cc2cc(F)ccc2O1 (stereo not drawn)
-0.183

I'd like to know its cytotoxicity at 10 µM. The molecule in question is O=S(=O)(C1CC1)N1CCC2(CC1)CC(Oc1ccccn1)CO2 (stereo not drawn)
-139

I'd like to know its cytotoxicity at 10 µM. The molecule in question is CCOC1COC2(CCN(Cc3cccc(F)c3)CC2)C1 (stereo not drawn)
5.47

I'd like to know its cytotoxicity at 10 µM. The molecule in question is CC(C)C1CC(=O)Nc2c1cnn2Cc1ccco1 (stereo not drawn)
1.27

I'd like to know its cytotoxicity at 10 µM. The molecule in question is CCCN1CCCn2nc(CNS(=O)(=O)c3cccc(F)c3)cc2C1
-13.1

I'd like to know its cytotoxicity at 10 µM. The molecule in question is Cc1cc(C[S+]([O-])CC(=O)NCC(C)C)no1 (stereo not drawn)
-4.17

I'd like to know its cytotoxicity at 10 µM. The molecule in question is CN(C(=O)Cn1nc(-c2ccccc2)ccc1=O)C1CCS(=O)(=O)C1 (stereo not drawn)
1.82

I'd like to know its cytotoxicity at 10 µM. The molecule in question is COc1cc(OC)cc(C2CC(=O)Nc3c2nc2n3CCCC2)c1 (stereo not drawn)
-3.99

I'd like to know its cytotoxicity at 10 µM. The molecule in question is CC(C)n1cnc2c1C(C(=O)N1CCCC1)N(S(C)(=O)=O)CC2 (stereo not drawn)
-5.15

I'd like to know its cytotoxicity at 10 µM. The molecule in question is NC(=O)c1csc(C(=O)N2CCCC(n3ccnc3)C2)c1 (stereo not drawn)
-2.07

I'd like to know its cytotoxicity at 10 µM. The molecule in question is Cc1nnc2ccc(N3CCN(Cc4nccn4C)CC3)nn12
13.3

I'd like to know its cytotoxicity at 10 µM. The molecule in question is Cc1ccc(Cn2cc(Br)c(NS(C)(=O)=O)n2)cc1
0.22

I'd like to know its cytotoxicity at 10 µM. The molecule in question is Cc1noc(C)c1C(=O)NCCN1CCOCC1
-10.9

I'd like to know its cytotoxicity at 10 µM. The molecule in question is Cc1cccc(N2CCC3(CCCN(C(=O)c4cccnc4)C3)C2)n1 (stereo not drawn)
0.677

I'd like to know its cytotoxicity at 10 µM. The molecule in question is CN(C)c1nc(N2CCCC2)nc2c1CCN(C(=O)c1ccco1)CC2
14.4

I'd like to know its cytotoxicity at 10 µM. The molecule in question is CC(=O)Nc1nc(C(=O)N2CCCC2Cn2cccn2)cs1 (stereo not drawn)
-5.42

I'd like to know its cytotoxicity at 10 µM. The molecule in question is O=C(NC[C@]12COC[C@H]1CN(Cc1cccnc1)C2)c1ccsc1
2.95

I'd like to know its cytotoxicity at 10 µM. The molecule in question is CN1CCN(c2ccccc2NC(=O)c2ccco2)CC1
-5.92

I'd like to know its cytotoxicity at 10 µM. The molecule in question is COc1ccccc1OCCN(C)Cc1c(C2CC2)[nH]c2ncccc12
5.62

I'd like to know its cytotoxicity at 10 µM. The molecule in question is CCN1C(=O)C(C)(C)c2cc(NC(=O)c3ccco3)ccc21
-10.2

I'd like to know its cytotoxicity at 10 µM. The molecule in question is Cn1ccc2ccc(C(=O)N3CCC[C@H]3C(=O)N3CCOCC3)cc21
-0.829

I'd like to know its cytotoxicity at 10 µM. The molecule in question is OCC1(NCc2cnc(-c3ccccn3)s2)CCOCC1
9.32

I'd like to know its cytotoxicity at 10 µM. The molecule in question is CCn1cc2c(n1)CN(Cc1cnn(C)c1)CC2COCC1CC1 (stereo not drawn)
-80.4

I'd like to know its cytotoxicity at 10 µM. The molecule in question is CN(Cc1ccccc1)C(=O)CSc1ccc2c(c1)OCCO2
-9.48

I'd like to know its cytotoxicity at 10 µM. The molecule in question is Cc1ccc(C(=O)NCC(O)CN2CCCC2=O)cc1Cl (stereo not drawn)
-8.69

I'd like to know its cytotoxicity at 10 µM. The molecule in question is COCCN(C(=O)c1ccoc1C)c1ccc(C#N)cc1
-4.9

I'd like to know its cytotoxicity at 10 µM. The molecule in question is CC(C)CN1C[C@H]2CCN(C(=O)c3ccccn3)CC[C@H]2S1(=O)=O
0.582

I'd like to know its cytotoxicity at 10 µM. The molecule in question is CC(C)(N)C(=O)N1CCCC(C(=O)c2ccc(C(C)(C)C)cc2)C1 (stereo not drawn)
-1.1

I'd like to know its cytotoxicity at 10 µM. The molecule in question is COc1ncccc1NC(=O)N(Cc1ccc(C(N)=O)cc1)C1CC1
6.66

I'd like to know its cytotoxicity at 10 µM. The molecule in question is O=C(Nc1ccccc1C(=O)NCCCN1CCOCC1)c1ccco1
8.17

I'd like to know its cytotoxicity at 10 µM. The molecule in question is COc1ccc2c(c1)CC(C(=O)N(C)Cc1noc3c1CCCC3)CO2 (stereo not drawn)
-0.551

I'd like to know its cytotoxicity at 10 µM. The molecule in question is Cc1noc(C)c1C(=O)N1CCCC1(C)C(=O)NC1CCCC1 (stereo not drawn)
-1.33

I'd like to know its cytotoxicity at 10 µM. The molecule in question is CSc1cccc(CC(=O)N[C@@H]2CCNC[C@H]2O)c1
-1.72
